TARGET OR SYSTEM: VRK2 (human)
PROTOCOL DETAILS: KINOMEscan competition binding
EXPERIMENTAL PARAMETERS: compound 10.0 µM
Overview of recorded kinase still bound, per cent of control for various molecules

COMPOUND SMILES | PROPERTY LABEL | TEST RESULT
COc1cc2ncnc(Nc3cccc(Cl)c3)c2cc1OC | kinase still bound, per cent of control | 35%
CCN(CCO)CCCOc1ccc2c(Nc3cc(CC(=O)Nc4cccc(F)c4)[nH]n3)ncnc2c1 | kinase still bound, per cent of control | 100%
CCN1CCN(Cc2ccc(NC(=O)c3ccc(C)c(/C=C/c4cnc5[nH]ccc5c4OC)c3)cc2C(F)(F)F)CC1 | kinase still bound, per cent of control | 92%
N#Cc1cc(-c2ccnc(Nc3ccc(-n4cnc(-c5cccnc5)n4)cc3)n2)cc(N2CCOCC2)c1 | kinase still bound, per cent of control | 100%

Please look at the following molecule next.
Request: Give its kinase still bound, per cent of control value. Item: `CCCS(=O)(=O)Nc1ccc(F)c(C(=O)c2c[nH]c3ncc(Cl)cc23)c1F`
Result: 77%

* * *

Overview of recorded kinase still bound, per cent of control for various molecules
TARGET OR SYSTEM: STK32C (human) (UniProt Q86UX6)
Sequence (Q86UX6 whole entry, looked up): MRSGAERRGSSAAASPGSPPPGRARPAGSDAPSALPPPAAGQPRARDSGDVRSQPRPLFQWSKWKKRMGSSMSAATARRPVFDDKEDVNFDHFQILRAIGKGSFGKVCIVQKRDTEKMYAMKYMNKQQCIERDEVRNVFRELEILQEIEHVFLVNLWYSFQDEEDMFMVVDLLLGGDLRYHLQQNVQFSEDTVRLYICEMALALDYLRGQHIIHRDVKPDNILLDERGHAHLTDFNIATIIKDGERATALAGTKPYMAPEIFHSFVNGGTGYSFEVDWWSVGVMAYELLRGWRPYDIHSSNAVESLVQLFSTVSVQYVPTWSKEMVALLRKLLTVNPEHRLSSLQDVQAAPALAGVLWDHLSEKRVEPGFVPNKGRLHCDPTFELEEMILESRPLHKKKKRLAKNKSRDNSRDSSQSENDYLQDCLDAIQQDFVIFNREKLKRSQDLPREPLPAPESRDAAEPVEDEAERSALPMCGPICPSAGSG
PROTOCOL DETAILS: KINOMEscan competition binding
EXPERIMENTAL PARAMETERS: compound 10.0 µM
Give just the numeric value; % need not be written.

MOLECULE | TARGET OR SYSTEM | UNIT SYMBOL | kinase still bound, per cent of control
N#C/C(=C1/Nc2ccccc2S1)c1ccnc(NCCc2cccnc2)n1 | STK32C (human) (UniProt Q86UX6) | % | 99
COc1cc(N2CCC(C(N)=O)CC2)ccc1Nc1nc(N)c(Cl)c(Nc2ccccc2S(=O)(=O)C(C)C)n1 | STK32C (human) (UniProt Q86UX6) | % | 33

Request: Give its kinase still bound, per cent of control value. Item: `CCN1CCN(Cc2ccc(NC(=O)c3ccc(C)c(/C=C/c4cnc5[nH]ccc5c4OC)c3)cc2C(F)(F)F)CC1`
Result: 100

Request: Give its kinase still bound, per cent of control value. Item: `CCOc1cc(N2CCC(O)CC2)ccc1Nc1ncc2c(n1)N(C)c1ccccc1C(=O)N2C`
Result: 100

Request: Give its kinase still bound, per cent of control value. Item: CC1=C(C(=O)Nc2cc3cn[nH]c3cc2F)C(c2ccc(C(F)(F)F)cc2)CC(=O)N1 (stereo not drawn)
Result: 48

Request: Give its kinase still bound, per cent of control value. Item: `CCCS(=O)(=O)Nc1ccc(F)c(C(=O)c2c[nH]c3ncc(Cl)cc23)c1F`
Result: 86

Request: Give its kinase still bound, per cent of control value. Item: COc1cc(C)c(Sc2cnc(NC(=O)c3ccc(CNC(C)C(C)C)cc3)s2)cc1C(=O)N1CCN(C(C)=O)CC1 (stereo not drawn)
Result: 100

Request: Give its kinase still bound, per cent of control value. Item: `N#Cc1cc(-c2ccnc(Nc3ccc(-n4cnc(-c5cccnc5)n4)cc3)n2)cc(N2CCOCC2)c1`
Result: 89

Request: Give its kinase still bound, per cent of control value. Item: `COc1ccc(N(C(=O)Oc2cc(C(=O)Nc3cccc(C(F)(F)F)c3)ccc2C)c2ccnc(Nc3ccc(N4CCN(C)CC4)cc3)n2)c(OC)c1`
Result: 100

Request: Give its kinase still bound, per cent of control value. Item: `COc1cc2c(Nc3ccc(NC(=O)c4ccccc4)cc3)ncnc2cc1OCCCN1CCOCC1`
Result: 100

Request: Give its kinase still bound, per cent of control value. Item: `C=CC(=O)Nc1ccc(C(=O)c2sc(Nc3ccc(N4CCN(C)CC4)cc3OC)nc2N)cc1`
Result: 84

Request: Give its kinase still bound, per cent of control value. Item: `O=c1[nH]c2ccccc2n1C1CCN(Cc2ccc(-c3nc4cc5[nH]cnc5cc4nc3-c3ccccc3)cc2)CC1`
Result: 87

Request: Give its kinase still bound, per cent of control value. Item: `CCc1nc(-c2cccc(C)c2)c(-c2ccnc(NC(=O)c3ccccc3)c2)s1`
Result: 35

Request: Give its kinase still bound, per cent of control value. Item: `CCN(CCO)CCCOc1ccc2c(Nc3cc(CC(=O)Nc4cccc(F)c4)[nH]n3)ncnc2c1`
Result: 78

* * *

TARGET OR SYSTEM: AAK1 (human) (UniProt Q2M2I8)
Sequence (Q2M2I8 whole entry, looked up): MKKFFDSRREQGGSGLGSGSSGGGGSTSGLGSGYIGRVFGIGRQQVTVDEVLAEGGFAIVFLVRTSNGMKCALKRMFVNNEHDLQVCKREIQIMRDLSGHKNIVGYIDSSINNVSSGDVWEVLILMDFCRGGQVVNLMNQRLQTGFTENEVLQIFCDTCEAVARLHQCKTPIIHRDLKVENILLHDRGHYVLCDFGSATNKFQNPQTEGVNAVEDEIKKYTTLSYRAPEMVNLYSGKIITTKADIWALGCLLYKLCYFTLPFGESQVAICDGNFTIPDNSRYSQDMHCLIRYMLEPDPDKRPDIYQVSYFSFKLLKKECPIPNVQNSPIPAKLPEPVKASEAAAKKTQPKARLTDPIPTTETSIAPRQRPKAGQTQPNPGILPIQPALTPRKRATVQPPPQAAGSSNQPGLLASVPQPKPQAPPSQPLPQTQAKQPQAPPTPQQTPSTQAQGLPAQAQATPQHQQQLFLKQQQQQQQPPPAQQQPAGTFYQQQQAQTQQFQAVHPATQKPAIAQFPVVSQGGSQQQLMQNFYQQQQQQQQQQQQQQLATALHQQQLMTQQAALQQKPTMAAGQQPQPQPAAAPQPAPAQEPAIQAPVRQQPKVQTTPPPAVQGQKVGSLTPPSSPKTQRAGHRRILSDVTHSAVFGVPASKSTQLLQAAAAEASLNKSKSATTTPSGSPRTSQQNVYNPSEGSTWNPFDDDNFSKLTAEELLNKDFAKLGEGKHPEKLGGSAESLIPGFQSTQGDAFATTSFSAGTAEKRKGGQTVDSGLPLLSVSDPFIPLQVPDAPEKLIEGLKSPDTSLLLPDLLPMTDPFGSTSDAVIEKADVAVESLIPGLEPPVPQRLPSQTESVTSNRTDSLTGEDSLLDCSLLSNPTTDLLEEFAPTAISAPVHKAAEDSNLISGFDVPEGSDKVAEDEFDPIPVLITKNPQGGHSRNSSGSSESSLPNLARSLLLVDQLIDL
PROTOCOL DETAILS: KINOMEscan competition binding
EXPERIMENTAL PARAMETERS: compound 10.0 µM
Overview of recorded kinase still bound, per cent of control for various compounds
Give just the numeric value; % need not be written.

Solved entries (count: 5):
COMPOUND | UNIT SYMBOL | TEST RESULT
CCc1nc(-c2cccc(C)c2)c(-c2ccnc(NC(=O)c3ccccc3)c2)s1 | % | 96
CCCS(=O)(=O)Nc1ccc(F)c(C(=O)c2c[nH]c3ncc(Cl)cc23)c1F | % | 84
CC1=C(C(=O)Nc2cc3cn[nH]c3cc2F)C(c2ccc(C(F)(F)F)cc2)CC(=O)N1 (stereo not drawn) | % | 70
CC(=O)c1c(C)c2cnc(Nc3ccc(N4CCNCC4)cn3)nc2n(C2CCCC2)c1=O | % | 11
CCOc1cc(N2CCC(O)CC2)ccc1Nc1ncc2c(n1)N(C)c1ccccc1C(=O)N2C | % | 100

Request: Give its kinase still bound, per cent of control value. Item: `O=c1[nH]c2ccccc2n1C1CCN(Cc2ccc(-c3nc4cc5[nH]cnc5cc4nc3-c3ccccc3)cc2)CC1`
Result: 100

Request: Give its kinase still bound, per cent of control value. Item: `COc1ccc(N(C(=O)Oc2cc(C(=O)Nc3cccc(C(F)(F)F)c3)ccc2C)c2ccnc(Nc3ccc(N4CCN(C)CC4)cc3)n2)c(OC)c1`
Result: 100

Request: Give its kinase still bound, per cent of control value. Item: COc1cc(C)c(Sc2cnc(NC(=O)c3ccc(CNC(C)C(C)C)cc3)s2)cc1C(=O)N1CCN(C(C)=O)CC1 (stereo not drawn)
Result: 100

* * *

TARGET OR SYSTEM: UniProt Q96L34
Sequence (Q96L34 whole entry, looked up): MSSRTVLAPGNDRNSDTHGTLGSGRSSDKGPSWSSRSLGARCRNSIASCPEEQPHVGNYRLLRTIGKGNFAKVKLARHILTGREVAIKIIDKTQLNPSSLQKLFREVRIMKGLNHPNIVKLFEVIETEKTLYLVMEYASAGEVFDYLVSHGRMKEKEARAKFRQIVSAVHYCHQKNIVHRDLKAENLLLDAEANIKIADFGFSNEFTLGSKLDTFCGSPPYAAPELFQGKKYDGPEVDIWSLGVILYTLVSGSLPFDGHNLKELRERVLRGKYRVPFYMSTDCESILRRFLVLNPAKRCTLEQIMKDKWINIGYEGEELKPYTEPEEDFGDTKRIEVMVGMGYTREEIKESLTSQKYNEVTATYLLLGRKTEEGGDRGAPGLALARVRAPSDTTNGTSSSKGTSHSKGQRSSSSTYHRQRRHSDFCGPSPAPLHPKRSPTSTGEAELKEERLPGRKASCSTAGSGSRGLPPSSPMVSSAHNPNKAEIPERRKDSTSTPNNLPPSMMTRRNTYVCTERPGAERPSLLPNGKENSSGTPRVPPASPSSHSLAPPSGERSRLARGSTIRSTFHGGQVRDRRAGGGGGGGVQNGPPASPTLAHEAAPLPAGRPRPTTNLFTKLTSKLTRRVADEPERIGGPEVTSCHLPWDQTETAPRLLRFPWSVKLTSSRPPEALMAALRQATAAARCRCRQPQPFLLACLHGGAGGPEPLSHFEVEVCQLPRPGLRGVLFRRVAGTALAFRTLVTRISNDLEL
PROTOCOL DETAILS: KINOMEscan competition binding
EXPERIMENTAL PARAMETERS: compound 10.0 µM
Overview of recorded kinase still bound, per cent of control for various compounds
Give just the numeric value; % need not be written.

Solved entries (count: 4):
COMPOUND | UNIT SYMBOL | TEST RESULT
CCOc1cc(N2CCC(O)CC2)ccc1Nc1ncc2c(n1)N(C)c1ccccc1C(=O)N2C | % | 100
N#Cc1cc(-c2ccnc(Nc3ccc(-n4cnc(-c5cccnc5)n4)cc3)n2)cc(N2CCOCC2)c1 | % | 78
CC(=O)c1c(C)c2cnc(Nc3ccc(N4CCNCC4)cn3)nc2n(C2CCCC2)c1=O | % | 63
COc1cc(C)c(Sc2cnc(NC(=O)c3ccc(CNC(C)C(C)C)cc3)s2)cc1C(=O)N1CCN(C(C)=O)CC1 (stereo not drawn) | % | 100

Request: Request body: readout kinase still bound, per cent of control, system UniProt Q96L34, query `COc1ccc(N(C(=O)Oc2cc(C(=O)Nc3cccc(C(F)(F)F)c3)ccc2C)c2ccnc(Nc3ccc(N4CCN(C)CC4)cc3)n2)c(OC)c1` . Return the value.
Result: 100

Request: Request body: readout kinase still bound, per cent of control, system UniProt Q96L34, query `Cc1cn(-c2cc(C(=O)Nc3ccc(C)c(NC(=O)c4ccno4)c3)cc(C(F)(F)F)c2)cn1` . Return the value.
Result: 100

* * *

TARGET OR SYSTEM: ERBB4 (human) (UniProt Q15303)
Sequence (Q15303 whole entry, looked up): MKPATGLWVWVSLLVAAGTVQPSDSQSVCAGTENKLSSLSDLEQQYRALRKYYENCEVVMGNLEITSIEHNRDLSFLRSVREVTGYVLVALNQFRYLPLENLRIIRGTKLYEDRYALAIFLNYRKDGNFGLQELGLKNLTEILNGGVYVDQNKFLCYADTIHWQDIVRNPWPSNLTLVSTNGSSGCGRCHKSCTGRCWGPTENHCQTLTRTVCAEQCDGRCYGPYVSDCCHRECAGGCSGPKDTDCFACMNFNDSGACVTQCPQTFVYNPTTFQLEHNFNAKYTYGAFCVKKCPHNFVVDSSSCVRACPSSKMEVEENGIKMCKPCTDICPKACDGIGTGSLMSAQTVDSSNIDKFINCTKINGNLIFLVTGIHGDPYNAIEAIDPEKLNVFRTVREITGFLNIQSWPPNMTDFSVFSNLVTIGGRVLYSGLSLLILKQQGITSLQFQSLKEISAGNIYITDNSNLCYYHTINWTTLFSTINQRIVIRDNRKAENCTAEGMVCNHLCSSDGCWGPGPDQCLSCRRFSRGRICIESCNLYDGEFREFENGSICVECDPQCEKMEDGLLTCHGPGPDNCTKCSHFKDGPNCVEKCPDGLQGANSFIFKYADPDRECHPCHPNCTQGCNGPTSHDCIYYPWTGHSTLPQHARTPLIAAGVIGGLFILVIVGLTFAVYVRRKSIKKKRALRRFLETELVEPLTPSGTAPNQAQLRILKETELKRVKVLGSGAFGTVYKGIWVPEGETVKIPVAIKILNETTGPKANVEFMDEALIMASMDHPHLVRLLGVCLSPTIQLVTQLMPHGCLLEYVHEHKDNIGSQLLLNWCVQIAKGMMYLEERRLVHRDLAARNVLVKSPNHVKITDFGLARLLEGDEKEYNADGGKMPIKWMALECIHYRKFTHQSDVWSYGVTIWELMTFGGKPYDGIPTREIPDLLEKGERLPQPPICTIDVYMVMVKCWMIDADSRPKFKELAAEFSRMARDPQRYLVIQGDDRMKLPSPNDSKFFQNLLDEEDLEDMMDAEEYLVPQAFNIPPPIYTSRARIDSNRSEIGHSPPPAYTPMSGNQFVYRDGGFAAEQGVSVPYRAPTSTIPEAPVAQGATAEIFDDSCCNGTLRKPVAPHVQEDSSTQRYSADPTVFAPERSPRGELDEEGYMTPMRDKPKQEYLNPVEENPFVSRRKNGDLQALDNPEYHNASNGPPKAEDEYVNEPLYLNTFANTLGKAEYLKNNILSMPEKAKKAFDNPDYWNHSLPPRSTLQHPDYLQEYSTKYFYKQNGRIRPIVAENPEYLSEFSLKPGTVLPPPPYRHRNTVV
PROTOCOL DETAILS: KINOMEscan competition binding
EXPERIMENTAL PARAMETERS: compound 10.0 µM
Overview of recorded kinase still bound, per cent of control for various compounds
Give just the numeric value; % need not be written.

COMPOUND | TEST RESULT
COc1cc(C)c(Sc2cnc(NC(=O)c3ccc(CNC(C)C(C)C)cc3)s2)cc1C(=O)N1CCN(C(C)=O)CC1 (stereo not drawn) | 100

Request: Give its kinase still bound, per cent of control value. Item: `C=CC(=O)Nc1ccc(C(=O)c2sc(Nc3ccc(N4CCN(C)CC4)cc3OC)nc2N)cc1`
Result: 61

Request: Give its kinase still bound, per cent of control value. Item: `CCc1nc(-c2cccc(C)c2)c(-c2ccnc(NC(=O)c3ccccc3)c2)s1`
Result: 2.8

Request: Give its kinase still bound, per cent of control value. Item: `COc1cc2c(Nc3ccc(NC(=O)c4ccccc4)cc3)ncnc2cc1OCCCN1CCOCC1`
Result: 0.65

Request: Give its kinase still bound, per cent of control value. Item: `COc1cc2ncnc(Nc3cccc(Cl)c3)c2cc1OC`
Result: 3.5

Request: Give its kinase still bound, per cent of control value. Item: `CC(=O)c1c(C)c2cnc(Nc3ccc(N4CCNCC4)cn3)nc2n(C2CCCC2)c1=O`
Result: 83

Request: Give its kinase still bound, per cent of control value. Item: `COc1cc(N2CCC(C(N)=O)CC2)ccc1Nc1nc(N)c(Cl)c(Nc2ccccc2S(=O)(=O)C(C)C)n1`
Result: 0.55

Request: Give its kinase still bound, per cent of control value. Item: `CCOc1cc(N2CCC(O)CC2)ccc1Nc1ncc2c(n1)N(C)c1ccccc1C(=O)N2C`
Result: 100

Request: Give its kinase still bound, per cent of control value. Item: CC1=C(C(=O)Nc2cc3cn[nH]c3cc2F)C(c2ccc(C(F)(F)F)cc2)CC(=O)N1 (stereo not drawn)
Result: 41

Request: Give its kinase still bound, per cent of control value. Item: `Cc1cn(-c2cc(C(=O)Nc3ccc(C)c(NC(=O)c4ccno4)c3)cc(C(F)(F)F)c2)cn1`
Result: 100

Request: Give its kinase still bound, per cent of control value. Item: `O=c1[nH]c2ccccc2n1C1CCN(Cc2ccc(-c3nc4cc5[nH]cnc5cc4nc3-c3ccccc3)cc2)CC1`
Result: 66

Request: Give its kinase still bound, per cent of control value. Item: `CCCS(=O)(=O)Nc1ccc(F)c(C(=O)c2c[nH]c3ncc(Cl)cc23)c1F`
Result: 73

Request: Give its kinase still bound, per cent of control value. Item: `COc1ccc(N(C(=O)Oc2cc(C(=O)Nc3cccc(C(F)(F)F)c3)ccc2C)c2ccnc(Nc3ccc(N4CCN(C)CC4)cc3)n2)c(OC)c1`
Result: 9.8

Request: Give its kinase still bound, per cent of control value. Item: `N#Cc1cc(-c2ccnc(Nc3ccc(-n4cnc(-c5cccnc5)n4)cc3)n2)cc(N2CCOCC2)c1`
Result: 91
